// data source = ChEMBL document CHEMBL1149201

Tested on: Human immunodeficiency virus 1
Assay: Concentration required to inhibit HIV infection by 50% in HeLa Magi cells
Format: functional, organism-based
Details: Human immunodeficiency virus 1, HeLa
READOUT: pIC50
// scale note: pIC50 = -log10(conc_M); give the bare number

Here is how some compounds turned out for pIC50.
1. C=CCN(C(=O)OCc1ccc([N+](=O)[O-])cc1)C1CCN(CC[C@@H](C[C@H](C)S(=O)(=O)c2ccccc2)c2ccccc2)CC1    6.52
2. C=CCN(C(=O)OCc1ccc([N+](=O)[O-])cc1)C1CCN(CC[C@H](C[C@@H](C)S(=O)(=O)c2ccccc2)c2ccccc2)CC1    6.95
3. C=CCN(C(=O)OCc1ccc([N+](=O)[O-])cc1)C1CCN(CC[C@@H](C[C@@H](C)S(=O)(=O)c2ccccc2)c2ccccc2)CC1    6.52

I would be grateful if you could share the reported pIC50 for C=CCN(C(=O)OCc1ccc([N+](=O)[O-])cc1)C1CCN(CCC(C)(CCS(=O)(=O)c2ccccc2)c2ccccc2)CC1 (stereo unspecified) .
6.52

Also need C=CCN(C(=O)OCc1ccc([N+](=O)[O-])cc1)C1CCN(CC[C@H](C[C@H](C)S(=O)(=O)c2ccccc2)c2ccccc2)CC1 , thanks.
5.52

----------
Here's a batch of compounds along with measured IC50 for C-C chemokine receptor type 5 (Homo sapiens, UniProt P51681).
Entry rule: numbers only, all in µM.

1. C=CCN(C(=O)OCc1ccc([N+](=O)[O-])cc1)C1CCN(CC[C@@H](C[C@@H](C)S(=O)(=O)c2ccccc2)c2ccccc2)CC1    8.4
2. C=CCN(C(=O)OCc1ccc([N+](=O)[O-])cc1)C1CCN(CC[C@H](C[C@H](C)S(=O)(=O)c2ccccc2)c2ccccc2)CC1    10.4
3. C=CCN(C(=O)OCc1ccc([N+](=O)[O-])cc1)C1CCN(CCC(C)(CC(C)(C)S(=O)(=O)c2ccccc2)c2ccccc2)CC1 (centres undefined)    11

Turning now to a further record.
I would be grateful if you could share the reported IC50 for C=CCN(C(=O)OCc1ccc([N+](=O)[O-])cc1)C1CCN(CCC(CC(C)S(C)(=O)=O)c2ccccc2)CC1 (centres undefined) .
6
